tested on: HPAC; assay: Antiproliferative activity against human HPAC cells assessed as reduction in cell viability measured after 5 days by Cell-Titer Glo assay; format: functional, cell-based; conditions: 120 h
Hi there, I'd appreciate the recorded pIC50 for every entry that follows.
Answers are plain numbers, as −log10 of the molar value.

Worked examples, 2 molecules total:
- N#Cc1c(N)sc2c(F)ccc(-c3c(C(F)(F)F)cc4c(N5C[C@H]6CC[C@@H](C5)N6)nc(OC[C@@]56CCCN5C[C@H](F)C6)nc4c3F)c12: 8.74
- N#Cc1c(N)sc2c(F)ccc(-c3c(Cl)cc4c(N5C[C@H]6CC[C@@H](C5)N6)nc(OC[C@@]56CCCN5C[C@H](F)C6)nc4c3F)c12: 8.47

Now for the molecule whose pIC50 we want.
Look at this molecule and give its reported pIC50. C#Cc1c(F)ccc2cc(O)cc(-c3ncc4c(N5C[C@H]6CC[C@@H](C5)N6)nc(OC[C@@]56CCCN5C[C@H](F)C6)nc4c3F)c12 [MRTX-1133]
8.38
